testedOn: MAP2K1 (human) (UniProt Q02750)
Sequence (Q02750 whole entry, looked up): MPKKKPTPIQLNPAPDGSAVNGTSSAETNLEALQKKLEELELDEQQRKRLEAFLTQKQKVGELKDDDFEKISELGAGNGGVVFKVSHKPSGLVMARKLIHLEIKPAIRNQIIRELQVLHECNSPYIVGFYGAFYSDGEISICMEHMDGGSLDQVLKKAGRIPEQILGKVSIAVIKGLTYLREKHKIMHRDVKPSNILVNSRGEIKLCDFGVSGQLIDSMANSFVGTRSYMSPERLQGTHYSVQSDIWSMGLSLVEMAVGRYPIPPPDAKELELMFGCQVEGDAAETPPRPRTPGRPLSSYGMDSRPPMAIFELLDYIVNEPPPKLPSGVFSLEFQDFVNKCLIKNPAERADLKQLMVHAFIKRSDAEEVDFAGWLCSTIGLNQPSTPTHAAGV
testMethodNotes: radiometric filter-binding kinase assay
experimentalContext: compound 10.0 µM
Label no (0) if residual activity falls below 80%; label yes (1) in every other case.

molecule	testedOn	labelValue
O=C(O)c1ccc(-c2c[nH]c3ncc(-c4ccccc4)cc23)cc1C1CCCC1	MAP2K1 (human) (UniProt Q02750)	no (0)
CCNc1nc(Nc2cc(F)c(C(=O)N3CCOCC3)cc2OC)ncc1C(F)(F)F	MAP2K1 (human) (UniProt Q02750)	no (0)
CC1=C(CO)C(=O)O[C@@H]([C@@H](C)[C@H]2CC[C@H]3[C@@H]4C[C@H]5O[C@]56[C@@H](O)C=CC(=O)[C@]6(C)C4CC[C@]23C)C1 (stereo partly specified)	MAP2K1 (human) (UniProt Q02750)	yes (1)
CN1C(=O)[C@@H](Cc2c[nH]c3ccccc23)NC1=S	MAP2K1 (human) (UniProt Q02750)	yes (1)
CC(C)C[C@H](NC(=O)CNC(=O)c1cc(Cl)ccc1Cl)B1OC(=O)CC(CC(=O)O)(C(=O)O)O1 (stereo partly specified)	MAP2K1 (human) (UniProt Q02750)	yes (1)
O=C1Nc2nc(-c3c(O)cccc3OCC3CC3)cc(C3CCCNC3)c2CO1 (stereo unspecified)	MAP2K1 (human) (UniProt Q02750)	no (0)
Cc1cccc(Nc2nn(C)c3ncnc(N)c23)c1	MAP2K1 (human) (UniProt Q02750)	yes (1)
Oc1ccc2ccccc2c1SSc1c(O)ccc2ccccc12	MAP2K1 (human) (UniProt Q02750)	yes (1)
O=C(N[C@@H](COc1ccc2[nH]c(=O)[nH]c2c1)c1ccccc1)c1cccn(Cc2ccc(F)c(F)c2)c1=O	MAP2K1 (human) (UniProt Q02750)	yes (1)
Cn1nc(Nc2ccc(F)cc2)c2c(N)ncnc21	MAP2K1 (human) (UniProt Q02750)	yes (1)
Cc1ccc2c(c1)C(=O)[C@@]1(O)CCN(c3ccccc3)C1=N2	MAP2K1 (human) (UniProt Q02750)	yes (1)
NCC(=O)Nc1ccc(-n2nc(C(F)(F)F)cc2-c2ccc3c(ccc4ccccc43)c2)cc1	MAP2K1 (human) (UniProt Q02750)	yes (1)
Cc1ccc(=O)n(-c2ccccc2)c1	MAP2K1 (human) (UniProt Q02750)	no (0)
Cc1ccc(-c2ccc3c(ccc4sc5c(c43)NC[C@@H](C)NC5=O)n2)cn1	MAP2K1 (human) (UniProt Q02750)	no (0)
NC(=O)c1cc2c(-c3cccc(-c4ccccc4)c3)cnc(N)c2s1	MAP2K1 (human) (UniProt Q02750)	no (0)
FC(F)(F)c1ccc(-c2ccc(Oc3cncc4sc(-c5nn[nH]n5)cc34)cc2)cc1	MAP2K1 (human) (UniProt Q02750)	no (0)
N#Cc1c(C2CCNCC2)cc(-c2c(O)cccc2OCC2CC2)nc1N	MAP2K1 (human) (UniProt Q02750)	no (0)
Cc1cc(SCc2sc(-c3ccc(C(F)(F)F)cc3)nc2C)ccc1OCC(=O)O	MAP2K1 (human) (UniProt Q02750)	yes (1)

----------
Listing of recorded residual activity by entry.
testedOn: UniProt Q15746
Sequence (Q15746 whole entry, looked up): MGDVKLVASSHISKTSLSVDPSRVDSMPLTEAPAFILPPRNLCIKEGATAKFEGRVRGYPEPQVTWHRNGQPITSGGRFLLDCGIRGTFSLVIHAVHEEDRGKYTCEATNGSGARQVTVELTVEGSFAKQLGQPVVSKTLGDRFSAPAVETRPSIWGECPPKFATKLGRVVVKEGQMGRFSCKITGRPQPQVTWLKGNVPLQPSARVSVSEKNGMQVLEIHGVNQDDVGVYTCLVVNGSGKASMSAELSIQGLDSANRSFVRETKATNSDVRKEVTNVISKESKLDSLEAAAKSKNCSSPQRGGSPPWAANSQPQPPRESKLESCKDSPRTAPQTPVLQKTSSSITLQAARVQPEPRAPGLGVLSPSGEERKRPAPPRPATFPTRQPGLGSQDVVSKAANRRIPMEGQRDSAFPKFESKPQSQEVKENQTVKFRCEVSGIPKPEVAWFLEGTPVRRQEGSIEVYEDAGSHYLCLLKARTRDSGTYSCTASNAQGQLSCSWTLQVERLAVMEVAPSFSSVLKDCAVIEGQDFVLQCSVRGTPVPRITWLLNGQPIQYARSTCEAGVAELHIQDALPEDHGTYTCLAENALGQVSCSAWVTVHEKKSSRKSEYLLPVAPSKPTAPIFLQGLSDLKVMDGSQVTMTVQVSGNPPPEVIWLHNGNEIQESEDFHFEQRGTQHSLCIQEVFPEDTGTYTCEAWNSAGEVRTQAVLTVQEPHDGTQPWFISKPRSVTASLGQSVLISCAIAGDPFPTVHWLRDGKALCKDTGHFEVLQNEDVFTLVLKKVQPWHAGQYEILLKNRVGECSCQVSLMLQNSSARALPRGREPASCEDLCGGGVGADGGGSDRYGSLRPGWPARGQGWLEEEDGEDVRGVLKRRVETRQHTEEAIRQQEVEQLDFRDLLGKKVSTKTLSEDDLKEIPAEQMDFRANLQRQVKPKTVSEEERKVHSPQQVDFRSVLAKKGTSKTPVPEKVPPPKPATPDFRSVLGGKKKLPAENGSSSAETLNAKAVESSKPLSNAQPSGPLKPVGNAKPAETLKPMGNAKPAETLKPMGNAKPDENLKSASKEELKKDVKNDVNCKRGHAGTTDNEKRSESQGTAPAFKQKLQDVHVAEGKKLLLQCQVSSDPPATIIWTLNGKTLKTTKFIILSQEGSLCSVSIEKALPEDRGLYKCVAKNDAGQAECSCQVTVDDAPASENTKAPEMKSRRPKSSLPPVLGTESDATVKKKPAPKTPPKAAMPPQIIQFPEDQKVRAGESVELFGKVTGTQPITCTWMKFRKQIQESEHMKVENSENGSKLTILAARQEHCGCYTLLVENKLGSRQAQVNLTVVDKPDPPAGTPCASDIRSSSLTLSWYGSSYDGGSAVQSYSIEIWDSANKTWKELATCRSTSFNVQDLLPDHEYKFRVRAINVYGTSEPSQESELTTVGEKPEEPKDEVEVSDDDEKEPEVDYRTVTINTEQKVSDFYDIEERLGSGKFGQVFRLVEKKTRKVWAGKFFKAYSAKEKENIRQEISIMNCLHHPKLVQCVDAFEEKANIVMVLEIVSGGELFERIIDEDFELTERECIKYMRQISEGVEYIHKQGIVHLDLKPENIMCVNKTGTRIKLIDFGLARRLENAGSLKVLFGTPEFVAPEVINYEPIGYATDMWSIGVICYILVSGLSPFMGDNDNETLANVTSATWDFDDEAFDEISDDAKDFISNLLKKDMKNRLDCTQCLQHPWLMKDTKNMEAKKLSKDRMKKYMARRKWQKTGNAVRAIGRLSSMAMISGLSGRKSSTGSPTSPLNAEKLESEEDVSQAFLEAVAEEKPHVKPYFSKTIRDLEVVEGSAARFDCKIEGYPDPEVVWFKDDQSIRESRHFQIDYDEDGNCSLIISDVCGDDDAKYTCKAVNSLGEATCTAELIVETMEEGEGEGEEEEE
testMethodNotes: radiometric filter-binding kinase assay
experimentalContext: compound 1.0 µM
parameterMeasured: residual activity

> print(dat)
                                    molecule   val
 1  CN(C)C/C=C/C(=O)Nc1cccc(C(=O)Nc2ccc(Nc3nccc(-c4cccnc4)n3)cc2)c1   85%
 2  N#Cc1c(C2CCNCC2)cc(-c2c(O)cccc2OCC2CC2)nc1N   70%
 3            Oc1ccc(/C=C/c2cc(O)cc(O)c2)cc1   78%
 4  O=C(O)c1ccc(-c2c[nH]c3ncc(-c4ccccc4)cc23)cc1C1CCCC1  102%
 5  COc1ccc2c(c1)c1c3c(c4c5ccccc5n(C)c4c1n2CC(O)CN(C)C)C(=O)NC3=O (stereo unspecified)    6%
 6    CN1C(=O)[C@@H](Cc2c[nH]c3ccccc23)NC1=S   83%
 7        Oc1ccc2ccccc2c1SSc1c(O)ccc2ccccc12   74%
 8  C=C1C(=O)OC2C1CC/C(C)=C/CCC1(C)OC21 (stereo unspecified)  123%
 9  O=C(N[C@@H](COc1ccc2[nH]c(=O)[nH]c2c1)c1ccccc1)c1cccn(Cc2ccc(F)c(F)c2)c1=O   97%
10  CCc1cncnc1N1CCN(Cc2nc3cc(C(F)(F)F)ccc3[nH]2)CC1   79%
11  NC(=O)Nc1ccc2c(c1)/C(=C/c1cc(-c3cccnc3)c[nH]1)C(=O)N2   11%
12  NC(=O)c1ccc(-c2ccc(Oc3cncc4sc(-c5nn[nH]n5)cc34)cc2)cc1   86%
13                Cn1c(=O)c2c(ncn2C)n(C)c1=O   91%
14  FC(F)(F)c1ccc(-c2ccc(Oc3cncc4sc(-c5nn[nH]n5)cc34)cc2)cc1   94%
15                           CCCC(CCC)C(=O)O   98%
16  COc1cc(C(=O)N2CCOCC2)c(F)cc1Nc1ncc(C(F)(F)F)c(NC2CC2)n1   44%
17  Nc1cccc2c1CN(C1CCC(=O)NC1=O)C2=O (stereo unspecified)   94%
18  COc1cc2ncn(-c3cc(OCc4ccccc4S(C)(=O)=O)c(C#N)s3)c2cc1OC   89%
19  NC1(c2ccc(-c3nc4ccn5c(=O)[nH]nc5c4cc3-c3ccccc3)cc2)CCC1   85%
20  Cc1ccc(-c2ccc3c(ccc4sc5c(c43)NC[C@@H](C)NC5=O)n2)cn1  112%
21  C=CC(=O)N1CCC[C@@H](n2nc(-c3ccc(Oc4ccccc4)cc3)c3c(N)ncnc32)C1   90%
22                  Cc1ccc(=O)n(-c2ccccc2)c1  102%
23  COc1cc(O)c2c(c1)[C@H]1OC1C[C@H](O)[C@H](O)C(=O)/C=C\C[C@H](C)OC2=O (stereo partly specified)   96%
24  Cc1cc(NC(=O)c2cccc(NC(=O)/C=C/CN(C)C)c2)ccc1Nc1nccc(-c2cccnc2)n1   96%
25  O=C(O)c1cc(N=Nc2ccc(S(=O)(=O)Nc3ccccn3)cc2)ccc1O  112%
26  NC(=O)c1cc(-c2ccnc(NC3CCCCC3)c2)nc(N2CCNCC2)c1   40%
27  O=C1Nc2nc(-c3c(O)cccc3OCC3CC3)cc(C3CCCNC3)c2CO1 (stereo unspecified)   76%
28  CCNc1nc(Nc2cc(F)c(C(=O)N3CCOCC3)cc2OC)ncc1C(F)(F)F   31%
29   Cc1nc(-c2ccc(OCC(C)C)c(C#N)c2)sc1C(=O)O  101%
30  COc1cc(O)c2c(c1)/C=C/C[C@H](O)[C@H](O)C(=O)/C=C\C[C@H](C)OC2=O   80%
31       O=C1NC(=S)N[C@@H]1Cc1c[nH]c2ccccc12   70%
32  CNc1nc(-c2ccc3c(N)n[nH]c3c2)cc(N2C[C@@H](C(=O)NC3CCCCC3)CC[C@H]2C)n1   99%
33  COc1ccc(-n2ncc3cnc(Nc4cc(OC)c(OC)c(OCCCN5CCN(C)CC5)c4)nc32)cc1   72%
34  Cc1ccc(Sc2cnc(Nc3cccc(Br)n3)s2)cc1C(=O)N1CCN(C(=O)CN)CC1   43%
35  O=C(Nc1cccnc1)c1cc(-c2ccnc(F)c2)ccc1OCc1ccccc1   32%
36  C[C@H]1CCCC(=O)CCC/C=C/c2cc(O)cc(O)c2C(=O)O1  104%
37  Cc1cccc(-c2nn(C(=S)Nc3ccccc3)cc2-c2ccnc3ccccc23)n1   89%
38  CCCCCc1ccc(/C=C/[C@H](O)[C@@H](CO)NC)cc1   95%
39  O=C(Nc1nc2cc(C(F)(F)F)cc(NC3CC3)n2n1)c1cccnc1  106%
40  CNC(=O)C1[C@H]2O[C@@](C)([C@@H]1N)n1c3ccccc3c3c4c(c5c6ccccc6n2c5c31)C(=O)NC4 (stereo partly specified)    1%
41  NCC(=O)Nc1ccc(-n2nc(C(F)(F)F)cc2-c2ccc3c(ccc4ccccc43)c2)cc1  109%

----------
Listing of recorded residual activity by entry.
testedOn: DYRK1A (human) (UniProt Q13627)
testMethodNotes: radiometric filter-binding kinase assay
experimentalContext: compound 1.0 µM
parameterMeasured: residual activity (%)

> print(dat)
                                    compound                         testedon  parametermeasured  val
 1  COc1cc(C(=O)N2CCOCC2)c(F)cc1Nc1ncc(C(F)(F)F)c(NC2CC2)n1  DYRK1A (human) (UniProt Q13627)  residual activity   78
 2  Cc1cccc(-c2nn(C(=S)Nc3ccccc3)cc2-c2ccnc3ccccc23)n1  DYRK1A (human) (UniProt Q13627)  residual activity  104
 3                           CCCC(CCC)C(=O)O  DYRK1A (human) (UniProt Q13627)  residual activity   98
 4  COc1ccc(-n2ncc3cnc(Nc4cc(OC)c(OC)c(OCCCN5CCN(C)CC5)c4)nc32)cc1  DYRK1A (human) (UniProt Q13627)  residual activity   12
 5  COc1cc(O)c2c(c1)/C=C/C[C@H](O)[C@H](O)C(=O)/C=C\C[C@H](C)OC2=O  DYRK1A (human) (UniProt Q13627)  residual activity   97
 6  O=c1c(O)c(-c2ccc(O)c(O)c2)oc2cc(O)c(O)c(O)c12  DYRK1A (human) (UniProt Q13627)  residual activity   71
 7  Cc1cc(SCc2sc(-c3ccc(C(F)(F)F)cc3)nc2C)ccc1OCC(=O)O  DYRK1A (human) (UniProt Q13627)  residual activity   87
 8  Nc1cccc2c1CN(C1CCC(=O)NC1=O)C2=O (stereo unspecified)  DYRK1A (human) (UniProt Q13627)  residual activity  107
 9       O=C1NC(=S)N[C@@H]1Cc1c[nH]c2ccccc12  DYRK1A (human) (UniProt Q13627)  residual activity   85
10           Cn1nc(Nc2ccc(F)cc2)c2c(N)ncnc21  DYRK1A (human) (UniProt Q13627)  residual activity  105
11  c1ccc2c(-c3cnn4cc(-c5ccc(N6CCNCC6)cc5)cnc34)ccnc2c1  DYRK1A (human) (UniProt Q13627)  residual activity   40
12          NC(=O)c1c(NC(=O)C2CC2)sc2c1CCCC2  DYRK1A (human) (UniProt Q13627)  residual activity   85
13  N#Cc1c(C2CCNCC2)cc(-c2c(O)cccc2OCC2CC2)nc1N  DYRK1A (human) (UniProt Q13627)  residual activity   99
14  NC(=O)c1cc(-c2ccnc(NC3CCCCC3)c2)nc(N2CCNCC2)c1  DYRK1A (human) (UniProt Q13627)  residual activity   63
15   Cc1nc(-c2ccc(OCC(C)C)c(C#N)c2)sc1C(=O)O  DYRK1A (human) (UniProt Q13627)  residual activity  102
16  CNC(=O)C1[C@H]2O[C@@](C)([C@@H]1N)n1c3ccccc3c3c4c(c5c6ccccc6n2c5c31)C(=O)NC4 (stereo partly specified)  DYRK1A (human) (UniProt Q13627)  residual activity    3
17  O=C(O)c1cc(N=Nc2ccc(S(=O)(=O)Nc3ccccn3)cc2)ccc1O  DYRK1A (human) (UniProt Q13627)  residual activity   94
18  CC(C)(C#N)c1ccc(N2C(=O)OCc3cnc4ccc(-c5cnc6ccccc6c5)cc4c32)cc1  DYRK1A (human) (UniProt Q13627)  residual activity   89
19  Cc1ccc(-c2ccc3c(ccc4sc5c(c43)NC[C@@H](C)NC5=O)n2)cn1  DYRK1A (human) (UniProt Q13627)  residual activity   31
20  COc1cc2ncn(-c3cc(OCc4ccccc4S(C)(=O)=O)c(C#N)s3)c2cc1OC  DYRK1A (human) (UniProt Q13627)  residual activity   73
21  O=C(NOCC(O)CO)c1ccc(F)c(F)c1Nc1ccc(I)cc1Cl (stereo unspecified)  DYRK1A (human) (UniProt Q13627)  residual activity   91

The measured values listed here are drawn from the kinase profiling compilation of Christmann-Franck et al. (2016).
